Biological target: matriptase (Homo sapiens, UniProt Q9Y5Y6)
Construct: purchased R&D Systems 3946-SEB
Sequence (Q9Y5Y6 615-855 limits assumed): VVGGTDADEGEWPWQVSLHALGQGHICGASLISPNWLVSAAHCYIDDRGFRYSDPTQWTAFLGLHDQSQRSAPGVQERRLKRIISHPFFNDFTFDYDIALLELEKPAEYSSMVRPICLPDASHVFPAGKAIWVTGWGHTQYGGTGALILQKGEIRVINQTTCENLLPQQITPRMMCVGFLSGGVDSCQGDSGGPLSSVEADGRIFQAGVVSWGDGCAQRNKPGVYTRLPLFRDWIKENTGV
Experiment: FRET peptide cleavage efficiency with matriptase
Type: biochemical
Conditions: pH 6.5; t = 60 min (Table 7)
Square brackets hold non-standard residues; d marks the D form. Ends that are not written are not given here. Tyr(3-NO2) = N[C@@H](Cc1ccc(O)c([N+](=O)[O-])c1)C(=O)O; 2Abz = Nc1ccccc1C(=O)O
Lab note: compare % cleavage Matriptase t = 60 min against 30%. Equal or greater, write yes (1). Smaller, write no (0).

- SEQUENCE CONTENT: "SGRVAGLVG ([2Abz]SGRVAGLVG[Tyr(3-NO2)]-NH2) [LNK016]"
  TARGET UNDER TEST: "matriptase (Homo sapiens, UniProt Q9Y5Y6)"
  CLASS LABEL: "no (0)"

API: above_or_equal(metric=% cleavage Matriptase t = 60 min, cutoff=30%) for item SGRVLRKAGPANLVG ([2Abz]SGRVLRKAGPANLVG[Tyr(3-NO2)]-NH2) [LNK014]
yes (1)

hey, is % cleavage Matriptase t = 60 min for this one >= 30%? SSRGRRGPYMLQG ([2Abz]SSRGRRGPYMLQG[Tyr(3-NO2)]-NH2) [LNK021]
yes (1)

Test whether the sequence SGRVLRKAGPQPLVD ([2Abz]SGRVLRKAGPQPLVD[Tyr(3-NO2)]-NH2) [LNK003] records % cleavage Matriptase t = 60 min of 30% or higher.
yes (1)

Does the sequence SGRVANLVG (not fully specified (N-terminus, C-terminus)) [LNK017] have recorded % cleavage Matriptase t = 60 min that is 30% or more?
no (0)

Would you say SSRGPYMLQG ([2Abz]SSRGPYMLQG[Tyr(3-NO2)]-NH2) [LNK022] shows % cleavage Matriptase t = 60 min at minimum 30%?
no (0)

Is the recorded value of % cleavage Matriptase t = 60 min equal to or greater than 30% for this sequence? RQRRSPLGLAG ([2Abz]RQRRSPLGLAG[Tyr(3-NO2)]-NH2) [LNK010]
yes (1)

----------
Molecular target: MMP-2 (Homo sapiens)
Construct: purchased SIGMA PF023
Sequence (P08253 110-660): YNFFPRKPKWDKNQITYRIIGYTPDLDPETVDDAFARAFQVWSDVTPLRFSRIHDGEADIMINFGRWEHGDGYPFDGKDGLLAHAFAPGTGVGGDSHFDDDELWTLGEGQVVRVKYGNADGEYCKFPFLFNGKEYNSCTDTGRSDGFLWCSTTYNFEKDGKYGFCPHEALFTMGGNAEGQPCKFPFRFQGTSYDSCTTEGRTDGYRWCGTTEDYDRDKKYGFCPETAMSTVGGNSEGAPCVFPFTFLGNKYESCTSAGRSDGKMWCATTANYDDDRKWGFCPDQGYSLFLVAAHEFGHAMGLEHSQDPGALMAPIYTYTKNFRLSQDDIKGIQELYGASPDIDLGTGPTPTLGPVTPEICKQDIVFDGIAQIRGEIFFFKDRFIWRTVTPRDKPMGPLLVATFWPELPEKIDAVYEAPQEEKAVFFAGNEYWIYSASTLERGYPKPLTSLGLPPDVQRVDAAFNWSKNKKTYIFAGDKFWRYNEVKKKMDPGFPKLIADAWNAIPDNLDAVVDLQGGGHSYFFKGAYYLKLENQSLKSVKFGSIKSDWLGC
Assay: FRET peptide cleavage efficiency with MMP-2
Assay type: biochemical
Conditions: t = 120 min; 200 uM linker, 1 ug/ml protease, 37° C., buffer C pH 7.5
Square brackets hold non-standard residues; d marks the D form. Ends that are not written are not given here. Tyr(3-NO2) = N[C@@H](Cc1ccc(O)c([N+](=O)[O-])c1)C(=O)O; 2Abz = Nc1ccccc1C(=O)O
READOUT LABEL: % cleavage MMP-2 t = 120 min (%)
Please state the figure in %; there is no need to write the unit.

- SUBSTANCE: "SSRGPYMLQG ([2Abz]SSRGPYMLQG[Tyr(3-NO2)]-NH2) [LNK022]"
  TARGET UNDER TEST: "MMP-2 (Homo sapiens)"
  MEASUREMENT UNIT: "%"
  QUANTITATIVE RESULT: 96

Given SSRAVFRKNLGPLGLAG ([2Abz]SSRAVFRKNLGPLGLAG[Tyr(3-NO2)]-NH2) [LNK002] , state its recorded % cleavage MMP-2 t = 120 min.
98

Field request: % cleavage MMP-2 t = 120 min | item: SSRGPASNRRLPLGLAG ([2Abz]SSRGPASNRRLPLGLAG[Tyr(3-NO2)]-NH2) [LNK001]
99

Query: % cleavage MMP-2 t = 120 min; subject: SGRVANYFGKL ([2Abz]SGRVANYFGKL[Tyr(3-NO2)]-NH2) [LNK054]
100

% cleavage MMP-2 t = 120 min for RSSYYSL ([2Abz]RSSYYSL[Tyr(3-NO2)]-NH2) [LNK076] ?
92

What % cleavage MMP-2 t = 120 min value was documented for this substance, RQRRSPLGLAG ([2Abz]RQRRSPLGLAG[Tyr(3-NO2)]-NH2) [LNK010] ?
99

I would be grateful if you could share the reported % cleavage MMP-2 t = 120 min for RGRRAANLVRPLGYFGKL ([2Abz]RGRRAANLVRPLGYFGKL[Tyr(3-NO2)]-NH2) [LNK060] .
100

Recorded % cleavage MMP-2 t = 120 min of HSSKLQL ([2Abz]HSSKLQL[Tyr(3-NO2)]-NH2) [LNK078] , please.
8

Reported % cleavage MMP-2 t = 120 min, substance SGRVLPYAMTA ([2Abz]SGRVLPYAMTA[Tyr(3-NO2)]-NH2) [LNK024] : ____
99

Name the recorded % cleavage MMP-2 t = 120 min for SGRHSSKLQPLGYFGKL ([2Abz]SGRHSSKLQPLGYFGKL[Tyr(3-NO2)]-NH2) [LNK063] .
100

Requested field: % cleavage MMP-2 t = 120 min. Item: SGRVLRKAGPANLVG ([2Abz]SGRVLRKAGPANLVG[Tyr(3-NO2)]-NH2) [LNK014]
97

Tell me the measured % cleavage MMP-2 t = 120 min of SPLGLAGS ([2Abz]SPLGLAGS[Tyr(3-NO2)]-NH2) [LNK030] , please.
99

Would you mind telling me what % cleavage MMP-2 t = 120 min value was observed for SGRVLPANLVG ([2Abz]SGRVLPANLVG[Tyr(3-NO2)]-NH2) [LNK015] ?
98
